system: OATP1; experiment: Biphalin transcellular transport across iPSC-BMECs monolayer (transwell in vitro BBB model); assay type: in vitro ADME, human; conditions: human; normoxic; E3S pre-incubated 30 min, both luminal and abluminal sides, then biphalin 10 µg/mL plus E3S; A-B; corrected for FITC-dextran 4 kD; LC-MS/MS; mean ± SD, n = 4; read-out: net permeability coefficient (PC) of biphalin, apical to basolateral, with E3S (converted)
propertyLabel: Papp A→B at 10 µg/mL (nm/s)

smilesnotation=C[C@@H](NC(=O)[C@@H](N)Cc1ccc(O)cc1)C(=O)NCC(=O)N[C@@H](Cc1ccccc1)C(=O)NNC(=O)[C@H](Cc1ccccc1)NC(=O)CNC(=O)[C@@H](C)NC(=O)[C@@H](N)Cc1ccc(O)cc1 studytarget=OATP1 readoutvalue=56.7
